Origin of values: patent US20220281965A1

system_name: T1, mature recombinant cynomolgus GDF-15 with an N-terminal Flag and His tag, biotinylated (cynomolgus, UniProt G7PWZ3 197-308, chemically biotinylated with EZ link Sulfo-NHS-LC-Biotin, sites not stated)
T1 construct: not shown: N-terminal Flag and His tags
T1 sequence: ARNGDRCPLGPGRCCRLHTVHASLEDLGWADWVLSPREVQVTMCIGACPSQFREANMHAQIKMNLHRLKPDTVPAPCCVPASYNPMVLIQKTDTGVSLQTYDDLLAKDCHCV
experimental_details: SPR Biacore 8K, 25 C, biotinylated GDF-15 on streptavidin C1 chip, Fab as analyte
Listed here: items and their measured kon.
# number only, unit M⁻¹ s⁻¹ dropped from output

Recorded results for 2 binders are shown here.
AB1170244 Fab (Fab, V domains shown, Fab of the humanized antibody, expressed as in Spooner et al. 2015) VH: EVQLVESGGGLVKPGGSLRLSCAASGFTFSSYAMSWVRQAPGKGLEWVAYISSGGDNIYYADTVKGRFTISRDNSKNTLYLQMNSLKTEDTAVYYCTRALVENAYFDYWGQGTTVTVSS VL: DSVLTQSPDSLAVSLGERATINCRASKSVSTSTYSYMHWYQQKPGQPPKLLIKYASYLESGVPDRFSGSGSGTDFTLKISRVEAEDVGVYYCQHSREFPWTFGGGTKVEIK :: 2.64e+06
AB1520085 Fab (Fab, V domains shown, Fab of the anti-mouse GDF-15 mouse IgG1, expressed as in Spooner et al. 2015) VH: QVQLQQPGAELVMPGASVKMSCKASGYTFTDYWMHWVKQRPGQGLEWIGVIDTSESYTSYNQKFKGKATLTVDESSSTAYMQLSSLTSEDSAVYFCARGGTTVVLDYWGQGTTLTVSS VL: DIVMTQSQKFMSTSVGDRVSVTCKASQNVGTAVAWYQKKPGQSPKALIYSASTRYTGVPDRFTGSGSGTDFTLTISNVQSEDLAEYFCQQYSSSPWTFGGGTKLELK :: 2.79e+06

Name the recorded kon for AB1170241 Fab (Fab, V domains shown, Fab of the humanized antibody, expressed as in Spooner et al. 2015) VH: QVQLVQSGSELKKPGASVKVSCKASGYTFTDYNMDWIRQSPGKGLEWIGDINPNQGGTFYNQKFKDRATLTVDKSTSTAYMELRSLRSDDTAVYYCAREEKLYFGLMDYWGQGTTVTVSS VL: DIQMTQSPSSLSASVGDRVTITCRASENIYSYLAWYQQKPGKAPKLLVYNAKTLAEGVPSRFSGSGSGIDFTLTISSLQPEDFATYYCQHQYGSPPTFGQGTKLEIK .
5.87e+06
